B1: CDC25B (parent)
chain: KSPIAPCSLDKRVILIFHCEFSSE

Variants of: B1
experiment_summary: protein stability index of a GFP-peptide fusion (GPS, HEK-293T) (PSI 1-6); higher = more stable;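 further: lentivirally expressed fusions sorted by FACS into six bins by GFP to DsRed ratio, PSI derived from sequencing read proportions per bin multiplied by bin number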
setup_conditions: c terminus: a fixed tail appended
recorded_metric: protein stability index
One number for each entry.

Here's what some known entries look like.
ISPIAPCSLDKRVILIFHCEFSSE [K1I] :: 1.11
KSPIAPCSWDKRVILIFHCEFSSE [L9W] :: 2.9
KSPIAPCSRDKRVILIFHCEFSSE [L9R] :: 3.58
KSPIQPCSLDKRVILIFHCEFSSE [A5Q] :: 1.42
KSPIAPCSLDKRVILIFHPEFSSE [C19P] :: 2.75

I need protein stability index for every entry listed below, if you could help.
1. KSPIAPCSLDKRVFLIFHCEFSSE [I14F]
2. KSAIAPCSLDKRVILIFHCEFSSE [P3A]
3. KSPIAPNSLDKRVILIFHCEFSSE [C7N]
4. KSPIAPQSLDKRVILIFHCEFSSE [C7Q]

Key:
[2.94, 2.25, 2.54, 2.01]

Return reported protein stability index values for all items listed beneath this line.
1. KSPIAPCSLDKRVILIRHCEFSSE [F17R]
2. KSPIAPCSLDKRVILKFHCEFSSE [I16K]
3. KSPIAPCSLDKRVIRIFHCEFSSE [L15R]

Key:
1. 1.69
2. 1.39
3. 1.71
